Tested on: RXF 393
PROTOCOL DETAILS: NCI tumour cell line growth inhibition, 48 h
Calls of active or inactive are those of the source. Rule as the data show it: active = GI50 up to about 1.1 µM and inactive = higher.
Hi! Could you answer with just one of these? active, inactive

{"columns": ["COMPOUND", "CATEGORY"],
 "data": [
  ["Oc1ccc2ccccc2c1/C=N/Cc1c(O)ccc2ccccc12", "inactive"]
]}

Request: # lookup: test call for CC(=O)OCC1OC(n2cc(F)c(=O)[nH]c2=O)C(NC(=O)OCc2ccccc2)C(OC(C)=O)C1OC(C)=O (centres undefined)
Response: inactive

Request: Now the compound "Cc1ccc(S(=O)(=O)N2CCCN(S(=O)(=O)c3ccc(C)cc3)CCN(S(=O)(=O)c3ccc(C)cc3)CCCSCC2)cc1"
Response: inactive

Request: Try this compound next: "N=c1c2sc3nc4ccccc4n3c2ncn1Cc1ccccc1"
Response: inactive

Request: Now try O=C(c1nc2ccccc2nc1O)C(O)c1ccco1 (centres undefined) .
Response: inactive

Request: Now the same for "CCCc1ccc(/N=C\c2cc(OC)c(OC)c(OC)c2)cc1"
Response: inactive

Request: Next: "COC(=O)C1=C(C(=O)OC)C(N(C)C)C(C(=O)OC)=C(C(=O)OC)S1"
Response: inactive

Request: Same read-out for O=C1c2cccnc2C(=O)C2C3C=CC(C3)C12 (centres undefined) ?
Response: inactive

Request: Same thing, different compound: "CON(C)C(=O)CNC(=O)OCC1c2ccccc2-c2ccccc21"
Response: inactive

Request: Try the compound "Nc1nc(Cl)cc(NCCCCCCCCCCCCNc2cc(Cl)nc(N)n2)n1"
Response: inactive
